biological target: DGKζ (Homo sapiens (Human), UniProt Q13574); test: In vitro DGKζ inhibition assay (ADP-Glo); conditions: His-tagged human recombinant enzyme, 0.4 nM DGK, 30 μM ATP, 20 μM DLG, 90 minute incubation
Sequence (Q13574 whole entry): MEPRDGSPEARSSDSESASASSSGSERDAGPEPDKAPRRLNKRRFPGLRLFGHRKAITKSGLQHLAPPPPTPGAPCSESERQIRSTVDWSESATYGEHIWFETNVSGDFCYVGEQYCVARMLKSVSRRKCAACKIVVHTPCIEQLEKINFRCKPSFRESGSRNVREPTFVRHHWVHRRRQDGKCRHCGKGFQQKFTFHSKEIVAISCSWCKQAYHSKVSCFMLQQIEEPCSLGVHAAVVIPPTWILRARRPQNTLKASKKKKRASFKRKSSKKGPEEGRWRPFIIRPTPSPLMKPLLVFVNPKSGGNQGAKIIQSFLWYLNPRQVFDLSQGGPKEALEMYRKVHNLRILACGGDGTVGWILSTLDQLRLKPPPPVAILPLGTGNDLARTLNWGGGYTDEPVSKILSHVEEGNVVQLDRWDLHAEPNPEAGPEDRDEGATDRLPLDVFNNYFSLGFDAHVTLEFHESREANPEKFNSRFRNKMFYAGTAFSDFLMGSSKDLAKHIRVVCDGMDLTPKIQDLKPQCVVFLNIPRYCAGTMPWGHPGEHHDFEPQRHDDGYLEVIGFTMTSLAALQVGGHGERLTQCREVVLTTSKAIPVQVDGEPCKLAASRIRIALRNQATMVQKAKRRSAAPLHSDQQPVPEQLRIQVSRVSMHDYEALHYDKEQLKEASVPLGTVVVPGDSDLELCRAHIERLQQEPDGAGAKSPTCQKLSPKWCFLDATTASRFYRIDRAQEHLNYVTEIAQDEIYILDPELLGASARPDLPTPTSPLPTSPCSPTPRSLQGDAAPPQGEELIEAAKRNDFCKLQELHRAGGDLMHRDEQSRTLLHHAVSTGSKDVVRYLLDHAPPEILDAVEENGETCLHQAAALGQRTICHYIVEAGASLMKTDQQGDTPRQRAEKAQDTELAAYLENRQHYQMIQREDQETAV
In this section we review reported IC50 values for a set of compounds.

C[C@@H]1CN(c2nc3nncn3c3c2cnn3C)[C@@H](C)CN1C(c1ccc(F)cc1)c1ccc(F)cc1 :: > 2000 nM
Cc1nc2c(N3C[C@@H](C)N(C(c4ccc(C(F)(F)F)cc4)C4CC(F)(F)C4)C[C@@H]3C)nc3nncn3c2n1C[C@@H]1CCCO1 (single isomer, unassigned) :: ≤ 20 nM
Cc1nc2c(N3C[C@@H](C)N([C@H](c4ccc(Br)cc4)C(C)C)C[C@@H]3C)nc3nncn3c2n1C[C@@H]1CCCO1 :: ≤ 20 nM
Cc1nc2c(N3C[C@@H](C)N(C(c4ccc(F)c(Cl)c4)C4CC(F)(F)C4)C[C@@H]3C)nc3nncn3c2n1C[C@@H]1CCCO1 (single isomer, unassigned) :: ≤ 20 nM
Cc1nc2c(N3C[C@@H](C)N(C(c4ccc(C(F)(F)F)c(F)c4)C(C)C)C[C@@H]3C)nc3nncn3c2n1C[C@@H]1CCCO1 (stereo partly drawn) :: ≤ 20 nM

Given item `Cc1nc2c(N3C[C@@H](C)N(C(c4ccc(Br)cc4)c4ccc(Br)cc4)C[C@@H]3C)nc3nncn3c2n1C[C@@H]1CCCO1` , the value recorded as its IC50 is ≤ 20 nM

====

biological target: DGKα (Homo sapiens (Human), UniProt P23743); assay: In vitro DGKα inhibition assay (ADP-Glo); conditions: His-tagged human recombinant enzyme, 0.1 nM DGKα, 50 μM ATP, 20 μM DLG, 90 minute incubation
Sequence (P23743 whole entry): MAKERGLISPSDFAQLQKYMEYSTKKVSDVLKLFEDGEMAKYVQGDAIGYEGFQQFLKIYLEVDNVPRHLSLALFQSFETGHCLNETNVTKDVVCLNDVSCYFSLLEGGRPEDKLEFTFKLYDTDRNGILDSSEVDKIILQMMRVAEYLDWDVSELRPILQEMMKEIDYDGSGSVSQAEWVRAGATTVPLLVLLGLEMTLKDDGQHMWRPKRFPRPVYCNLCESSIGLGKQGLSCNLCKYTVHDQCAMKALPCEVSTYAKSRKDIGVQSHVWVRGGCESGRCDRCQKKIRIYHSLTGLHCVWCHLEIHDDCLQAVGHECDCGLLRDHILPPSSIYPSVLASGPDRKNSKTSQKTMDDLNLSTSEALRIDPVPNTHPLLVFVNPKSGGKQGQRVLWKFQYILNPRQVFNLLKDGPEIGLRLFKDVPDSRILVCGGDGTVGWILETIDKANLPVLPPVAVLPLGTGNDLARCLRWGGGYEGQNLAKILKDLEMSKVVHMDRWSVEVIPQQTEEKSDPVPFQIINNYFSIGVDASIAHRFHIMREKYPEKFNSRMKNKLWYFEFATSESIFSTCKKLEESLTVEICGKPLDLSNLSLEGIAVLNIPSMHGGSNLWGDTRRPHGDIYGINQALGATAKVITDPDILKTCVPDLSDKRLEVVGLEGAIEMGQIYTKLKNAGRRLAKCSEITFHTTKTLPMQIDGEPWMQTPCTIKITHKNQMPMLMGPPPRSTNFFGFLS
In this section we review reported IC50 values for a set of compounds.

Reference set, count: 5
C[C@@H]1CN(c2nc3nncn3c3c2ncn3CCN(C)C)[C@@H](C)CN1C(c1ccc(C(F)(F)F)cn1)c1ccc(C(F)(F)F)cn1 :: ≤ 20 nM
CC[C@@H]1CN(c2nc3nncn3c3c2nc(C)n3C[C@@H]2CCCO2)[C@@H](C)CN1C(c1ccc(F)cc1)c1ccc(F)cc1 :: ≤ 20 nM
C[C@@H]1CN(c2nc3nncn3c3c2ncn3CCN(C)C)[C@@H](C)CN1C(c1ccc(C(F)F)cc1)c1ccc(C(F)F)cc1 :: ≤ 20 nM
Cc1nc2c(N3C[C@@H](C)N(C(c4ccc(Cl)cc4)c4ccc(Cl)cc4)C[C@@H]3C)nc3nncn3c2n1C[C@@H]1CCCO1 :: ≤ 20 nM
Cc1nc2c(N3C[C@@H](C)N([C@@H](c4ccc(Cl)cc4)C(C)C)C[C@@H]3C)nc3nncn3c2n1C[C@@H]1CCCO1 :: ≤ 20 nM

Next:
Entry `Cc1nc2c(N3C[C@@H]([C@H](C)O)N(C(c4ccc(F)cc4)c4ccc(F)cc4)C[C@@H]3C)nc3nncn3c2n1C[C@@H]1CCCO1` , tested on DGKα (Homo sapiens (Human), UniProt P23743), has a reported IC50 of ≤ 20 nM

====

In this section we review reported IC50 values for a set of compounds.
Biological target: DGKζ (Homo sapiens (Human))
Assay: In vitro DGKζ inhibition assay (ADP-Glo)
Assay type: biochemical
Conditions: His-tagged human recombinant enzyme, 0.4 nM DGK, 30 μM ATP, 20 μM DLG, 90 minute incubation
Method: The DGKα and DGKξ biochemical reactions were performed using His-tagged human recombinant enzymes (Signal Chem, DGKα, #D21-1OBH; DGKξ, #D30-10H)) and DLG (Dilauroyl-sn-glycerol) lipid substrate (Signal Chem, #D430-59). […] For compound inhibition studies, 40 nL test compound in DMSO was added to wells of white polystyrene plates in 384-well (Greiner, #784075) or 1536-well format (Greiner, #782075). […] Plates were then read using Luminescence method on BMG PHERAstar FSX plate reader. […]

Reference set, count: 2
Cc1cc(C(C2CC(F)(F)C2)N2C[C@H](C)N(c3nc4nncn4c4c3nc(C)n4C[C@@H]3CCCO3)C[C@H]2C)ccc1Cl (stereo partly drawn) [Example 51] :: ≤ 20 nM
C[C@H]1CN(C(c2ccc(F)cc2)c2ccc(F)cc2)[C@H](CC#N)CN1c1nc2nnc(C3CC3)n2c2scnc12 [Example 15] :: ≤ 20 nM

Next:
Given item CC[C@@H]1CN(c2nc3nncn3c3c2nc(C)n3C[C@@H]2CCCO2)[C@@H](C)CN1[C@@H](c1ccc(OC(F)F)cc1)C(C)C [Example 127] , the value recorded as its IC50 is ≤ 20 nM
